# System: Mouse PERK
# assay_procedure: In vitro kinase inhibition assay: PERK-mediated eIF2α phosphorylation
# Assay type: biochemical
# reported_conditions: compounds selected in the initial VLS
# Description: Mouse PERK proteins comprising the cytoplasmic portion of the molecule with the delta loop deleted were pre-incubated with varying concentrations of compound at room temperature for 10 minutes. This construct thus contains close to a minimal catalytic domain of PERK, closely similar but not identical to SEQ ID NO: 1. […] To determine the selectivity of the compounds, their ability to inhibit protein kinase PKA was also evaluated. […]
measured_metric: Activity (ability to inhibit PERK-mediated eIF2α phosphorylation in vitro)

molecule: O=C(Nc1cccc(Oc2ccc3c(c2)C(=O)N(c2ccc(O)cc2)C3=O)c1)c1ccco1 [Compound B6]
result: active
//
molecule: ON=C1CC2C3CC(C12)C1/C(=N\O)CC31 (centres unmarked) [Compound A1]
result: inactive
//
molecule: O=C(COc1ccccc1)NC(=S)Nc1ccc(O)c(-c2nc3ccccc3s2)c1 [Compound D1]
result: active
//
molecule: Cc1ccccc1N1C(=O)CC(SC(=N)N/N=C/c2ccc(O)c(O)c2)C1=O (centres unmarked) [Compound A3]
result: inactive
//
molecule: CCC(Oc1ccccc1)C(=O)Nc1sc2c(c1C(N)=O)CCC(C(C)(C)C)C2 (centres unmarked) [Compound B2]
result: active
